System: Rattus norvegicus
Experiment: Anti-inflammatory activity in Rattus norvegicus (rat) assessed as inhibition of carrageenan-induced paw edema at 20 mg/kg, po measured at 1 hr post carrageenan-challenge (reference value: 6.1 +/- 0.27%)
Assay type: functional
QUANTITY_KIND: inhibition in vivo at 20 mg/kg (%)

COMPOUND	MEASURED_VALUE
O=c1c2ccccc2nc(N/N=C/c2ccc([N+](=O)[O-])cc2)n1Cc1ccccc1	45
Cc1ccccc1/C=N/Nc1nc2ccccc2c(=O)n1Cc1ccccc1	47
O=c1c2ccccc2nc(NN=C2CCCCC2)n1Cc1ccccc1	52
O=c1c2ccccc2nc(N/N=C/c2ccccc2)n1Cc1ccccc1	45
O=C1Nc2ccccc2/C1=N\Nc1nc2ccccc2c(=O)n1Cc1ccccc1	45
O=c1c2ccccc2nc(N/N=C/c2ccccc2Cl)n1Cc1ccccc1	38
O=c1c2ccccc2nc(NN=C(c2ccccc2)c2ccccc2)n1Cc1ccccc1	50
COc1ccc(/C=N/Nc2nc3ccccc3c(=O)n2Cc2ccccc2)cc1	40
O=c1c2ccccc2nc(N/N=C/c2ccccc2[N+](=O)[O-])n1Cc1ccccc1	43
C/C(=N\Nc1nc2ccccc2c(=O)n1Cc1ccccc1)c1ccccc1	53
CC/C(C)=N/Nc1nc2ccccc2c(=O)n1Cc1ccccc1	59
Cc1ccc(/C=N/Nc2nc3ccccc3c(=O)n2Cc2ccccc2)cc1	49
CCC/C(C)=N/Nc1nc2ccccc2c(=O)n1Cc1ccccc1	65
CCC(CC)=NNc1nc2ccccc2c(=O)n1Cc1ccccc1	68
O=C([O-])Cc1ccccc1Nc1c(Cl)cccc1Cl.[Na+] [DICLOFENAC SODIUM]	52
O=c1c2ccccc2nc(N/N=C/c2ccc(Cl)cc2)n1Cc1ccccc1	44

Reference source for all entries: ChEMBL document CHEMBL3046395
